Values were extracted from patent US20120214784A1.

Biological target: Delta Opioid (Homo sapiens, UniProt P41143)
Sequence (P41143 whole entry): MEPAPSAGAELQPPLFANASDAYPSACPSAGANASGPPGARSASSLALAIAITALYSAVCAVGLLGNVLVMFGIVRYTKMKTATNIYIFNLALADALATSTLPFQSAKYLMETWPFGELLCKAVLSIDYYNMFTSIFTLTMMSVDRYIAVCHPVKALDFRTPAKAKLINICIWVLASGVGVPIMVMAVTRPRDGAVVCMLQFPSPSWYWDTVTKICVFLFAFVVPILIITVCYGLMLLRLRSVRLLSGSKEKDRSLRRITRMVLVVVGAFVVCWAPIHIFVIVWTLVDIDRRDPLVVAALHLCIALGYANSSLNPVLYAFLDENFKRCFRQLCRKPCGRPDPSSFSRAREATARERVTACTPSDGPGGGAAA
Test: Radioligand binding selectivity
quantity: Ki

Param item: Cc1nn(-c2c(F)cccc2F)cc1CN1CCC2(CC1)OCC(F)(F)c1cc(Cl)sc12.O=C(O)C(O)C(O)C(=O)O [Example 2] ; param system: Delta Opioid (Homo sapiens, UniProt P41143); output Ki: > 481 nM

---

Here we list compounds with their recorded Ki when tested on cloned human ORL1 receptors (Homo sapiens).
Sequence (P41146 whole entry): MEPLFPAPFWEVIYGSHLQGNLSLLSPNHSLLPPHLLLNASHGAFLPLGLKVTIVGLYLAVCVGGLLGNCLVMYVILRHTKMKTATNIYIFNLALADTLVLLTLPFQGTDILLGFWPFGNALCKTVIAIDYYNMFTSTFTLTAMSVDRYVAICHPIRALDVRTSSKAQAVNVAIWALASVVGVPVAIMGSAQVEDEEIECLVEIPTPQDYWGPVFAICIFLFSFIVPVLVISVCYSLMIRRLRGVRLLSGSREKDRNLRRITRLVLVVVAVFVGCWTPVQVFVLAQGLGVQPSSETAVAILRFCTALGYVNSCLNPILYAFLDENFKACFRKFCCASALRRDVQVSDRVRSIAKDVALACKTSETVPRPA
Quick reminder: number only, in nM, skip the unit.

| compound | quantity | recordedNumber |
| --- | --- | --- |
| OCc1nn(-c2c(F)cccc2F)cc1CN1CCC2(CC1)OCC(F)(F)c1cc(Cl)sc12 [Example 50] | Ki | 0.89 |

Form: compound = CC(=O)c1cccc(F)c1-n1cc(CN2CCC3(CC2)OCC(F)(F)c2cc(Cl)sc23)c(C)n1 [Example 40] ; Ki = 0.25

Form: compound = Cc1nn(-c2c(F)cccc2F)cc1CN1CCC2(CC1)OCC(F)(F)c1cc(Cl)sc12.O=C(O)C(O)C(O)C(=O)O [Example 2] ; Ki = 0.17

Form: compound = Cc1nn(-c2c(F)cccc2-n2ccnc2C)cc1CN1CCC2(CC1)OCC(F)(F)c1cc(Cl)sc12.O=C(O)C(O)C(O)C(=O)O [Example 47] ; Ki = 0.26

---

Target: 5-HT1F (Homo sapiens, UniProt P30939)
Sequence (P30939 1-366): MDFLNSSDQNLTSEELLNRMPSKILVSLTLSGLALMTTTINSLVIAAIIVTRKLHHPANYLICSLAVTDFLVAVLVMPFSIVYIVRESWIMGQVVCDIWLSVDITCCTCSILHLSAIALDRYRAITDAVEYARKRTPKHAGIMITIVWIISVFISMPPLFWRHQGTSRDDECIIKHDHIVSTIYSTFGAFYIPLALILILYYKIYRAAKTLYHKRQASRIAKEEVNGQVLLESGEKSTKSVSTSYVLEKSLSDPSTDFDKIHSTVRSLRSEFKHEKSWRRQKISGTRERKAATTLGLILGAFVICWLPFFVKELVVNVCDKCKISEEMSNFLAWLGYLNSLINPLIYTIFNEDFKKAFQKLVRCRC
quantity: Ki

Form: molecule = OCc1nn(-c2c(F)cccc2F)cc1CN1CCC2(CC1)OCC(F)(F)c1cc(Cl)sc12 ; Ki = > 8.52 µM

---

Biological target: UniProt Q13639
Sequence (Q13639 whole entry, species assumed): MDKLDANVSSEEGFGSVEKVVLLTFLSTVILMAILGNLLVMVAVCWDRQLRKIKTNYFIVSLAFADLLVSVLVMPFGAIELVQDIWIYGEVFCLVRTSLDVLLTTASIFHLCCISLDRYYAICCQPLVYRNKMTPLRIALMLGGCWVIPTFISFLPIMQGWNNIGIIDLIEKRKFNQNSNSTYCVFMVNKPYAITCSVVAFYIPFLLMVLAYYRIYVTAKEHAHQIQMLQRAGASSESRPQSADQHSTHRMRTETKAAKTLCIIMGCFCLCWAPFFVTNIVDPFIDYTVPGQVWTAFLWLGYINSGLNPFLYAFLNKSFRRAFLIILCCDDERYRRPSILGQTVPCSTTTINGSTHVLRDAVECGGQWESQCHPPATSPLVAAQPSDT
Experiment: Radioligand binding selectivity
quantity: Ki

Form: compound = Cc1nn(-c2c(F)cccc2F)cc1CN1CCC2(CC1)OCC(F)(F)c1cc(Cl)sc12.O=C(O)C(O)C(O)C(=O)O [Example 2] ; Ki = > 1.97 µM

---

Target: 5-HT5 (Homo sapiens)
Sequence (P47898 whole entry, species assumed): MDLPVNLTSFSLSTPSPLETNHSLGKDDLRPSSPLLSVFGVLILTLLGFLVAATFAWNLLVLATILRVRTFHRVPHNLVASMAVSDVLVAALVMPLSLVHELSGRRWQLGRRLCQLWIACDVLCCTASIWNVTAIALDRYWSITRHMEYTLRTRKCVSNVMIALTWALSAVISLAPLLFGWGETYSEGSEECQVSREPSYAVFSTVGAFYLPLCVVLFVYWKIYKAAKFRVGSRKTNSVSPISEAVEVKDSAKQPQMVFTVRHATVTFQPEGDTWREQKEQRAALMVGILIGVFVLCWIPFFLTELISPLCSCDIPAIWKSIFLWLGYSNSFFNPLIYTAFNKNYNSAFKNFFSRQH
Experiment: Radioligand binding selectivity
pKi: −log10 of the molar value.
quantity: pKi

Param item: Cc1nn(-c2c(F)cccc2F)cc1CN1CCC2(CC1)OCC(F)(F)c1cc(Cl)sc12.O=C(O)C(O)C(O)C(=O)O [Example 2] ; param system: 5-HT5 (Homo sapiens); output pKi: < 5.04

---

Molecular target: 5-HT1A (Homo sapiens, UniProt P08908)
Sequence (P08908 whole entry, species assumed): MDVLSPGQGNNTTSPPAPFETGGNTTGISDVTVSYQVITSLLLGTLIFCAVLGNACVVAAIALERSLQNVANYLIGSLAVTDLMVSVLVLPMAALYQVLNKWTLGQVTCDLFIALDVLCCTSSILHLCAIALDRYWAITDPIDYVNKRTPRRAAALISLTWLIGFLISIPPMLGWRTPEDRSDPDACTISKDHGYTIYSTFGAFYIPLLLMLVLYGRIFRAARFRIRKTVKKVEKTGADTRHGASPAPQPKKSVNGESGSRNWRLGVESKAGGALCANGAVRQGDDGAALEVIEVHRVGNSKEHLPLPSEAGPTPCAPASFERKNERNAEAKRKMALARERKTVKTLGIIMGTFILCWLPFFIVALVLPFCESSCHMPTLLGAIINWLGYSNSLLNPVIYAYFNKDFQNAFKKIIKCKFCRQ
quantity: Ki

Param item: Cc1nn(-c2c(F)cccc2F)cc1CN1CCC2(CC1)OCC(F)(F)c1cc(Cl)sc12.O=C(O)C(O)C(O)C(=O)O [Example 2] ; param system: 5-HT1A (Homo sapiens, UniProt P08908); output Ki: > 3.18 µM

---

Target: 5-HT1E (Homo sapiens, UniProt P28566)
Sequence (P28566 whole entry, species assumed): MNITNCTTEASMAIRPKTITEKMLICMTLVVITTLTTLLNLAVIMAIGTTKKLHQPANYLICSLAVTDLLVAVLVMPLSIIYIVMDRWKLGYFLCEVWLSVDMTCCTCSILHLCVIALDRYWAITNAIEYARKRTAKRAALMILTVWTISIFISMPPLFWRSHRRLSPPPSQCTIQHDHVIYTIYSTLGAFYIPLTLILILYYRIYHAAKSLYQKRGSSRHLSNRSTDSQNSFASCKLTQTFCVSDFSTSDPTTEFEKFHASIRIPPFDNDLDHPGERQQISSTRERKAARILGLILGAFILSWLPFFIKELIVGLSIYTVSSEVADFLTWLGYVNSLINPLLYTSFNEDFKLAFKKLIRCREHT
Assay: Radioligand binding selectivity
pKi: −log10 of the molar value.
quantity: pKi

Form: compound = Cc1nn(-c2c(F)cccc2F)cc1CN1CCC2(CC1)OCC(F)(F)c1cc(Cl)sc12.O=C(O)C(O)C(O)C(=O)O ; pKi = < 5.27

---

Here we list molecules with their recorded pKi when tested on 5-HT2B (Homo sapiens, UniProt P41595).
Sequence (P41595 whole entry, species assumed): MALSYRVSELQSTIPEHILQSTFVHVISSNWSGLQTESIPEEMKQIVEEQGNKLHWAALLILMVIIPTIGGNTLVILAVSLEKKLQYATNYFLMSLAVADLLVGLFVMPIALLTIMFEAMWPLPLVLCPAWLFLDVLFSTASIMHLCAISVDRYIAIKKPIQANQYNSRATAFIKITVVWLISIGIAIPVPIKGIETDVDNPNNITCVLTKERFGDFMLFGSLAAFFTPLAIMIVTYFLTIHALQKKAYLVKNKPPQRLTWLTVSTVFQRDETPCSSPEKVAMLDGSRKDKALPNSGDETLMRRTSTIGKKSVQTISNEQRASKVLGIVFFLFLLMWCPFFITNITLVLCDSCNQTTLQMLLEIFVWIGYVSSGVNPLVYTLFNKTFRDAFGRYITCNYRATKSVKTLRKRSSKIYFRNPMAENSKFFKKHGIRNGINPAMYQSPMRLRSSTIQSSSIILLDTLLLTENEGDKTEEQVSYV
The quantity pKi is defined as the negative base-10 logarithm of the molar concentration.

| smiles | pKi |
| --- | --- |
| Cc1nn(-c2c(F)cccc2F)cc1CN1CCC2(CC1)OCC(F)(F)c1cc(Cl)sc12.O=C(O)C(O)C(O)C(=O)O | 5.94 |

// next entry
Param item: OCc1nn(-c2c(F)cccc2F)cc1CN1CCC2(CC1)OCC(F)(F)c1cc(Cl)sc12 ; param system: 5-HT2B (Homo sapiens, UniProt P41595); output pKi: 7.37
